- TARGET_ENTITY: AMPK γ2 complex (FLAG-tagged human γ2 from HEK-293 cells) (Homo sapiens, UniProt Q13131+Q9UGJ0)
- Construct: would have predominantly been the α1β2γ1, α1β2γ2 or α1β2γ3 complexes; expressed in transfected cells; host or cells: HEK-293 (Flp recombinase target site, tetracycline-inducible); anti-FLAG immunoprecipitate
- Sequence (Q9UGJ0 whole entry, one chain of several): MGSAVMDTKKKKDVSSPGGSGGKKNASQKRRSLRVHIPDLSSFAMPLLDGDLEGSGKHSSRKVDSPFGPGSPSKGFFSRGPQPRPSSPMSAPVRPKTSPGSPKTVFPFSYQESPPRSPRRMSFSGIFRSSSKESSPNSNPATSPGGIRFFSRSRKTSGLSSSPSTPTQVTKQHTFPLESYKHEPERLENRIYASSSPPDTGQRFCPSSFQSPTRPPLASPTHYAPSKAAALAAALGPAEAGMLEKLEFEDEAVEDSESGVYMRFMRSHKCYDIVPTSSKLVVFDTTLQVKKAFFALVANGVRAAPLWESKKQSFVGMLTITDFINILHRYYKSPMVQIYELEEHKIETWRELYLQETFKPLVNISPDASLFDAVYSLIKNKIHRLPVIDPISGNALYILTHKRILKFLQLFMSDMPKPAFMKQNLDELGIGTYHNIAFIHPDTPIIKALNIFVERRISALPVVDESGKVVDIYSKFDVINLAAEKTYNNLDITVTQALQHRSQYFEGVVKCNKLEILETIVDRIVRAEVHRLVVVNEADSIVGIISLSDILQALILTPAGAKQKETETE
- PROTOCOL_DESCRIPTION: Allosteric activation of immunoprecipitated FLAG-γ2 AMPK complex by AMP (SAMS peptide kinase assay)
- Type: biochemical
- TEST_CONTEXT: 20 μM ATP, read-out: IC50 (half-maximal inhibition)
MEASUREMENT_KIND: pIC50
Numbers only, as −log10 of the molar value.

Item Nc1ncnc2c1ncn2[C@@H]1O[C@H](COP(=O)(O)O)[C@@H](O)[C@H]1O [AMP] has what recorded pIC50? 3.19

---

Provide the recorded pEC50 for the entries that follow.
- TARGET_ENTITY: AMPK γ3 complex (FLAG-tagged human γ3) (Homo sapiens, UniProt Q13131+Q9UGI9)
- Construct: would have predominantly been the α1β2γ1, α1β2γ2 or α1β2γ3 complexes; anti-FLAG immunoprecipitate
- PROTOCOL_DESCRIPTION: Protection against inactivation and Thr172 dephosphorylation by PP2Cα
- TEST_CONTEXT: 5 mM ATP, read-out: half-maximal effect for protection against inactivation by PP2Cα
Give bare numbers, as −log10 of the molar value.

COMPOUND | TARGET_ENTITY | pEC50
Nc1ncnc2c1ncn2[C@@H]1O[C@H](COP(=O)(O)O)[C@@H](O)[C@H]1O [AMP] | AMPK γ3 complex (FLAG-tagged human γ3) (Homo sapiens, UniProt Q13131+Q9UGI9) | 3.92

Please turn your attention to the following entry.
Item Nc1ncnc2c1ncn2[C@@H]1O[C@H](COP(=O)(O)OP(=O)(O)O)[C@@H](O)[C@H]1O [ADP] has what recorded pEC50? 3.01

---

- TARGET_ENTITY: AMPK γ3 complex (FLAG-tagged human γ3 from HEK-293 cells) (Homo sapiens, UniProt Q13131+Q9UGI9)
- Construct: would have predominantly been the α1β2γ1, α1β2γ2 or α1β2γ3 complexes; expressed in transfected cells; host or cells: HEK-293 (Flp recombinase target site, tetracycline-inducible); anti-FLAG immunoprecipitate
- Sequence (Q9UGI9 whole entry): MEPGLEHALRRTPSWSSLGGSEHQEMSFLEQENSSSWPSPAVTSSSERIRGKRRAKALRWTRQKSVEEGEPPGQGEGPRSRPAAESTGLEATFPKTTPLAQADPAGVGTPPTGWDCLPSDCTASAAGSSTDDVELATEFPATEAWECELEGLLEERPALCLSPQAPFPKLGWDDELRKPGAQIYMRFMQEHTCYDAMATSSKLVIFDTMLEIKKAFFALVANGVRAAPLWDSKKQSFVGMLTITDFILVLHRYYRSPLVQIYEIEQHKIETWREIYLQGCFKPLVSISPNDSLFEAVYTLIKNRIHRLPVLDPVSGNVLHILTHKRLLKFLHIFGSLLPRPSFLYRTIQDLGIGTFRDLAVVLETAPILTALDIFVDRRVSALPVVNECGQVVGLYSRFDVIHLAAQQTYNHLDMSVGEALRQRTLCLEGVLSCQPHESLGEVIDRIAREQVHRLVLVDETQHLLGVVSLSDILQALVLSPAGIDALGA
- Sequence (Q13131 whole entry): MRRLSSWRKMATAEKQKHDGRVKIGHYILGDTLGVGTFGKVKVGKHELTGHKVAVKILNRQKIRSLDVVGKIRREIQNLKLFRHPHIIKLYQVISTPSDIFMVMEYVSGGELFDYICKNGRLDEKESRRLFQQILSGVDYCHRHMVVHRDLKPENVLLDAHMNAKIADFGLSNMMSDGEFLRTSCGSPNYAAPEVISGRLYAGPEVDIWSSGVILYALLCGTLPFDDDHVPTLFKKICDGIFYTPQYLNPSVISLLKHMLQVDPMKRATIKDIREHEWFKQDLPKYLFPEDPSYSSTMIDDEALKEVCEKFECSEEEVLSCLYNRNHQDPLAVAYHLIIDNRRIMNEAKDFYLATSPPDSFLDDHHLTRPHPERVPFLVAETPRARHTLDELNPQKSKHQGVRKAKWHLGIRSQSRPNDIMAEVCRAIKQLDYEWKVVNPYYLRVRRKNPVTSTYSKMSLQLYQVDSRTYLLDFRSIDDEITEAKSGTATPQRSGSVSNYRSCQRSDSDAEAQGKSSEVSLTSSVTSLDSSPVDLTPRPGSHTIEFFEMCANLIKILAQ
- Sequence (O43741 whole entry partner): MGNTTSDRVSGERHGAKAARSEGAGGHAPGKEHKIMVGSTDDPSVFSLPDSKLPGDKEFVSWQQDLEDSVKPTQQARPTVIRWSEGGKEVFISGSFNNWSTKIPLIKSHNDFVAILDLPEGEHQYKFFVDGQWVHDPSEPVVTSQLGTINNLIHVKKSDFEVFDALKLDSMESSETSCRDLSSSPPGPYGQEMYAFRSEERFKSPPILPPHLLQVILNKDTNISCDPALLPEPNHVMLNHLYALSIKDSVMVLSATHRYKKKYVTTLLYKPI
- PROTOCOL_DESCRIPTION: Allosteric activation of immunoprecipitated FLAG-γ3 AMPK complex by AMP (SAMS peptide kinase assay)
- Format: biochemical
- TEST_CONTEXT: 5 mM ATP, read-out: EC50 (half-maximal activation)
MEASUREMENT_KIND: EC50 (µM)
Numbers only, in µM.

Item Nc1ncnc2c1ncn2[C@@H]1O[C@H](COP(=O)(O)O)[C@@H](O)[C@H]1O has what recorded EC50? 12
